# PROTOCOL_NOTES: self-splicing fitness, log relative to wild type (ln ratio); higher = more splicing; Tetrahymena group I intron in knt gene, E. coli kanamycin selection, DiMSum; sequences stand for … in CUCUCU…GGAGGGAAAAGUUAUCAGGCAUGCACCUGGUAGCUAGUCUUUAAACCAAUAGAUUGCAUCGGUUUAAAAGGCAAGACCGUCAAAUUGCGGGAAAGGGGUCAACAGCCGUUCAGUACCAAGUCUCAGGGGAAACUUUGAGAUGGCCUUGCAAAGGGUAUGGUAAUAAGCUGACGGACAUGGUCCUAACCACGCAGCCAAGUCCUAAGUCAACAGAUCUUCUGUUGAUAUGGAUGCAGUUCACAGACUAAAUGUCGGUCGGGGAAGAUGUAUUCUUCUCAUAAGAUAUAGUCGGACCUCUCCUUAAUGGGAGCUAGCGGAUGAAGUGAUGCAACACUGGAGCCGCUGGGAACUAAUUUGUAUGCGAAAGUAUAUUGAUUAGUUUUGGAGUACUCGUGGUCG;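 note: selection with 25 µg/mL kanamycin versus none on LB agar overnight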
# STUDY_CONDITIONS: 30 °C
ASSAY_READOUT: self-splicing fitness (ln)
Keep it simple and answer with nothing but the number.

Requested read-out: self-splicing fitness (ln). Entry: GUAAAGCAAUAUUACGUAGG
-2.5

Find the recorded self-splicing fitness (ln) belonging to CCCGAGCAAUAUUACGAUUC and report it.
-4.01

For the sequence CGAUAGCAAUAUUACGCUCA , what self-splicing fitness (ln) is on record?
-0.478

Report self-splicing fitness (ln) for ACUUAGCAAUAUUACGGUCC please.
-2.46

I would be grateful if you could share the reported self-splicing fitness (ln) for CAACAGCAAUAUUACGGCGG .
-0.393

Which measured self-splicing fitness (ln) value corresponds to CUGAAGCAAUAUUACGUCCA ?
-1.93

State the recorded self-splicing fitness (ln) for this entry: AACAAGCAAUAUUACGUGUU
-4.01

Recorded self-splicing fitness (ln) for GACGAGCAAUAUUACGAACA , please?
-0.347

Please report the recorded self-splicing fitness (ln) for AGAUAGCAAUAUUACGGUCG .
-0.105

Form field: reported self-splicing fitness (ln) of ACGCAGCAAUAUUACGUAAG
-0.0743

Quick one: self-splicing fitness (ln) of CUGCAGCAAUAUUACGUUAG ?
-2.97

Quick check: self-splicing fitness (ln) of AACGAGCAAUAUUACGCCUA ?
-3.36

Could you share which self-splicing fitness (ln) value was measured for AAUCAGCAAUAUUACGCAGC ?
-1.36

Name the reported self-splicing fitness (ln) value associated with the sequence CACAAGCAAUAUUACGCUGU
-3.78

Could you share which self-splicing fitness (ln) value was measured for AUACAGCAAUAUUACGUACC ?
-0.828

Please give the measured self-splicing fitness (ln) for this sequence: AGUGAGCAAUAUUACGAUUU
-2.6

# get_value(readout='self-splicing fitness (ln)', item= AUAUAGCAAUAUUACGUGAG )
-1.81

Please give the measured self-splicing fitness (ln) for this sequence: GUUAAGCAAUAUUACGGUAU
-1.36

# input sequence: UGCUAGCAAUAUUACGGCCC ; wanted: its self-splicing fitness (ln)
-1.72

Which self-splicing fitness (ln) is reported for this sequence? AGAGAGCAAUAUUACGCAUG
-3.23

Value lookup for self-splicing fitness (ln); key = CGUUAGCAAUAUUACGUUUA
-2.86

I'd like to know its self-splicing fitness (ln). The sequence in question is UGCGAGCAAUAUUACGAGCA
-1.98

Suppose we examine the sequence GAGAAGCAAUAUUACGCACG ; what self-splicing fitness (ln) value has been reported?
-0.497

GET /values?readout=self-splicing fitness (ln)&item= UAUCAGCAAUAUUACGGUCC
-2.18

Consider the sequence shown here: AAUCAGCAAUAUUACGCUCA What is its recorded self-splicing fitness (ln)?
0.294

Look up self-splicing fitness (ln) for this sequence: ACCGAGCAAUAUUACGUCGG
-4.23

Request the reported self-splicing fitness (ln) associated with GUCGAGCAAUAUUACGGGAC
-3.05

Query: self-splicing fitness (ln); subject: CCGGAGCAAUAUUACGAGCU
-2.94

Param item = CAUAAGCAAUAUUACGAACA ; retrieve measured self-splicing fitness (ln).
-3.64

So what does the record say about self-splicing fitness (ln) for GUCUAGCAAUAUUACGGUAA ?
-1.67

Looking for the measured self-splicing fitness (ln) of ACCCAGCAAUAUUACGCGAG , can you help?
-1.63

I'd like to know its self-splicing fitness (ln). The sequence in question is ACAAAGCAAUAUUACGGGAU
-1.19

Please give the measured self-splicing fitness (ln) for this sequence: AAUUAGCAAUAUUACGGAUU
-2.2

self-splicing fitness (ln) for UGUAAGCAAUAUUACGCGUG ?
-0.994

====

# PROTOCOL_NOTES: self-splicing fitness, log relative to wild type (ln ratio); higher = more splicing; Tetrahymena group I intron in knt gene, E. coli kanamycin selection, DiMSum; sequences stand for … in CUCUCU…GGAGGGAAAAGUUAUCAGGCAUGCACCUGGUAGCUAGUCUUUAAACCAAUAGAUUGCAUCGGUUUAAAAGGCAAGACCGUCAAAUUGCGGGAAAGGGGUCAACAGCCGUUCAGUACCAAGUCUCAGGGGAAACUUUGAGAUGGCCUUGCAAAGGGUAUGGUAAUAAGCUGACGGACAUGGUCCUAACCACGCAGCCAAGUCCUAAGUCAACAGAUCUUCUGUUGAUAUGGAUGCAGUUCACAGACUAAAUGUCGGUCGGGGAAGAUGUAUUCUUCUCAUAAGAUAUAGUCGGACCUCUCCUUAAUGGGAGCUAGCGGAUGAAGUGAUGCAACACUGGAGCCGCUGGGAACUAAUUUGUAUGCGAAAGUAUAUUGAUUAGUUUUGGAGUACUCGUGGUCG
# STUDY_CONDITIONS: 30 °C
Please go through the items and note down their self-splicing fitness (ln).
Number only, no unit.

Bench note: what self-splicing fitness (ln) did GGGUAGCAAUAUUACGCGCG show?
-0.435

For the sequence CAUUAGCAAUAUUACGUAUA , what self-splicing fitness (ln) is on record?
-2.34

# get_value(readout='self-splicing fitness (ln)', item= CGCUAGCAAUAUUACGAGUC )
-1.8

Give its self-splicing fitness (ln) value. Item: CCUGAGCAAUAUUACGAAUA
-2.69

// lookup self-splicing fitness (ln) for CCAGAGCAAUAUUACGAAGA
-3.48

Field request: self-splicing fitness (ln) | item: CACGAGCAAUAUUACGAGGC
-3.19

Fill blank: measured self-splicing fitness (ln) of the sequence GCUCAGCAAUAUUACGCGAA is ____.
-0.998

Which self-splicing fitness (ln) is reported for this sequence? UUGCAGCAAUAUUACGGCCU
-1.03

====

# PROTOCOL_NOTES: self-splicing fitness, log relative to wild type (ln ratio); higher = more splicing; Tetrahymena group I intron in knt gene, E. coli kanamycin selection, DiMSum; sequences stand for … in CUCUCU…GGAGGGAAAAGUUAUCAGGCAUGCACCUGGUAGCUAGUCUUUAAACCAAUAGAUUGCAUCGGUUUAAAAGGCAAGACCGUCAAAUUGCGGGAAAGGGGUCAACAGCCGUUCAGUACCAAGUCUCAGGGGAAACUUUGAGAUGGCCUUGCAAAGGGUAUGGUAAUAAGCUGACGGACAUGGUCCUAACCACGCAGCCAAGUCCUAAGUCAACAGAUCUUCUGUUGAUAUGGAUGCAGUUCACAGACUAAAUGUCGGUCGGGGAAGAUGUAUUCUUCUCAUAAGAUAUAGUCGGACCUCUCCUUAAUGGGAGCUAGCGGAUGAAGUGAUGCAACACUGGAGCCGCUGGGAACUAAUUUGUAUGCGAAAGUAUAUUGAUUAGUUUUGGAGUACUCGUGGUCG
# STUDY_CONDITIONS: 30 °C
Hi there, I'd appreciate the recorded self-splicing fitness (ln) for every entry that follows.

Form field: reported self-splicing fitness (ln) of UGGCAGCAAUAUUACGUAUG
-0.256

Please give the measured self-splicing fitness (ln) for this sequence: AUAAAGCAAUAUUACGUCAC
-3.46

So what's the measured self-splicing fitness (ln) for this one? GGAAAGCAAUAUUACGGAGG
-3.5

Which self-splicing fitness (ln) is listed for CAAAAGCAAUAUUACGGGAG ?
-2.05

Consider the sequence shown here: AUCUAGCAAUAUUACGAGCG What is its recorded self-splicing fitness (ln)?
-1.87

Consider the sequence shown here: GAUAAGCAAUAUUACGGGUC What is its recorded self-splicing fitness (ln)?
-3.26

Recorded self-splicing fitness (ln) for UGGAAGCAAUAUUACGAGGU , please?
-2.77

Fill blank: measured self-splicing fitness (ln) of the sequence CGUAAGCAAUAUUACGCGGU is ____.
-1.99
